Tested on: LHPP gene
TEST: High-throughput screening of saRNAs targeting LHPP promoter: LHPP mRNA by one-step RT-qPCR in Huh7 cells
Type: cell-based, human
APPLIED_CONDITIONS: 10 nM saRNA, 72 hours, relative to control (Mock)
d = 2'-deoxy (DNA); r = 2'-OH (RNA)
MEASUREMENT_KIND: Fold of changes in relative LHPP mRNA expression level (fold)
Field: numeric (fold). Do not append units.

What measured Fold of changes in relative LHPP mRNA expression level goes with RAG7-715: saRNA duplex; sense GUCCCGUUUUCUUCUCAGCTT (SEQ ID NO: 148), antisense GCUGAGAAGAAAACGGGACTT (SEQ ID NO: 312) (sugars from the 5' end r19 d2, backbone not given here) ? 1.13

What measured Fold of changes in relative LHPP mRNA expression level goes with RAG7-119: saRNA duplex; sense GAUCUCCUGGGAAGAAAGCTT (SEQ ID NO: 57), antisense GCUUUCUUCCCAGGAGAUCTT (SEQ ID NO: 221) (sugars from the 5' end r19 d2, backbone not given here) ? 1.35

What measured Fold of changes in relative LHPP mRNA expression level goes with RAG7-89: saRNA duplex; sense ACACCGUUUCAGGGGCGAGTT (SEQ ID NO: 104), antisense CUCGCCCCUGAAACGGUGUTT (SEQ ID NO: 268) (sugars from the 5' end r19 d2, backbone not given here) ? 1.21

What measured Fold of changes in relative LHPP mRNA expression level goes with RAG7-911: saRNA duplex; sense CUUUGAAAGCUCAAAGCUATT (SEQ ID NO: 160), antisense UAGCUUUGAGCUUUCAAAGTT (SEQ ID NO: 324) (sugars from the 5' end r19 d2, backbone not given here) ? 1.11

----------
System: LHPP gene
TEST: High-throughput screening of saRNAs targeting LHPP promoter: LHPP mRNA by one-step RT-qPCR in Huh7 cells
Type: cell-based, human
APPLIED_CONDITIONS: 10 nM saRNA, 72 hours, relative to control (Mock)
d = 2'-deoxy (DNA); r = 2'-OH (RNA)
MEASUREMENT_KIND: Fold of changes in relative LHPP mRNA expression level (log2)
Field: numeric (log2). Do not append units.

API: value(readout=Fold of changes in relative LHPP mRNA expression level (log2), system=LHPP gene) for record RAG7-144: saRNA duplex; sense CUGCUUUUCCUGCUCUUUGTT (SEQ ID NO: 18), antisense CAAAGAGCAGGAAAAGCAGTT (SEQ ID NO: 182) (sugars from the 5' end r19 d2, backbone not given here) 0.64

API: value(readout=Fold of changes in relative LHPP mRNA expression level (log2), system=LHPP gene) for record RAG7-188: saRNA duplex; sense UUCUUGUCUCAAUUUGCCUTT (SEQ ID NO: 21), antisense AGGCAAAUUGAGACAAGAATT (SEQ ID NO: 185) (sugars from the 5' end r19 d2, backbone not given here) 0.64

API: value(readout=Fold of changes in relative LHPP mRNA expression level (log2), system=LHPP gene) for record RAG7-692: saRNA duplex; sense GUCCUAUGCAUCCUCAUCUTT (SEQ ID NO: 124), antisense AGAUGAGGAUGCAUAGGACTT (SEQ ID NO: 288) (sugars from the 5' end r19 d2, backbone not given here) 0.22

API: value(readout=Fold of changes in relative LHPP mRNA expression level (log2), system=LHPP gene) for record RAG7-140: saRNA duplex; sense UUUUCCUGCUCUUUGUCCGTT (SEQ ID NO: 74), antisense CGGACAAAGAGCAGGAAAATT (SEQ ID NO: 238) (sugars from the 5' end r19 d2, backbone not given here) 0.36

----------
Test system: LHPP gene
TEST: High-throughput screening of saRNAs targeting LHPP promoter: LHPP mRNA by one-step RT-qPCR in Huh7 cells
Assay type: cell-based, human
APPLIED_CONDITIONS: 10 nM saRNA, 72 hours, relative to control (Mock)
d = 2'-deoxy (DNA); r = 2'-OH (RNA)
Label yes when Fold of changes in relative LHPP mRNA expression level (log2) is at or above 0.6 log2; anything below gets no.

Determine whether measured Fold of changes in relative LHPP mRNA expression level (log2) meets or exceeds 0.6 log2 for RAG7-907: saRNA duplex; sense GAAAGCUCAAAGCUAUGUUTT (SEQ ID NO: 22), antisense AACAUAGCUUUGAGCUUUCTT (SEQ ID NO: 186) (sugars from the 5' end r19 d2, backbone not given here) yes

Determine whether measured Fold of changes in relative LHPP mRNA expression level (log2) meets or exceeds 0.6 log2 for RAG7-187: saRNA duplex; sense UCUUGUCUCAAUUUGCCUUTT (SEQ ID NO: 123), antisense AAGGCAAAUUGAGACAAGATT (SEQ ID NO: 287) (sugars from the 5' end r19 d2, backbone not given here) no

Determine whether measured Fold of changes in relative LHPP mRNA expression level (log2) meets or exceeds 0.6 log2 for RAG7-89: saRNA duplex; sense ACACCGUUUCAGGGGCGAGTT (SEQ ID NO: 104), antisense CUCGCCCCUGAAACGGUGUTT (SEQ ID NO: 268) (sugars from the 5' end r19 d2, backbone not given here) no

Determine whether measured Fold of changes in relative LHPP mRNA expression level (log2) meets or exceeds 0.6 log2 for RAG7-130: saRNA duplex; sense CUUUGUCCGCUGAUCUCCUTT (SEQ ID NO: 77), antisense AGGAGAUCAGCGGACAAAGTT (SEQ ID NO: 241) (sugars from the 5' end r19 d2, backbone not given here) no

Determine whether measured Fold of changes in relative LHPP mRNA expression level (log2) meets or exceeds 0.6 log2 for RAG7-847: saRNA duplex; sense AAAGGUUCCGAGGGGCCAUTT (SEQ ID NO: 34), antisense AUGGCCCCUCGGAACCUUUTT (SEQ ID NO: 198) (sugars from the 5' end r19 d2, backbone not given here) no

Determine whether measured Fold of changes in relative LHPP mRNA expression level (log2) meets or exceeds 0.6 log2 for RAG7-893: saRNA duplex; sense AUGUUGGACCAGAAGUAAATT (SEQ ID NO: 14), antisense UUUACUUCUGGUCCAACAUTT (SEQ ID NO: 178) (sugars from the 5' end r19 d2, backbone not given here) yes

Determine whether measured Fold of changes in relative LHPP mRNA expression level (log2) meets or exceeds 0.6 log2 for RAG7-151: saRNA duplex; sense UUGUUUUCUGCUUUUCCUGTT (SEQ ID NO: 100), antisense CAGGAAAAGCAGAAAACAATT (SEQ ID NO: 264) (sugars from the 5' end r19 d2, backbone not given here) no

Determine whether measured Fold of changes in relative LHPP mRNA expression level (log2) meets or exceeds 0.6 log2 for RAG7-100: saRNA duplex; sense UUCCGAAAAGGACACCGUUTT (SEQ ID NO: 125), antisense AACGGUGUCCUUUUCGGAATT (SEQ ID NO: 289) (sugars from the 5' end r19 d2, backbone not given here) no

----------
System: LHPP gene
TEST: High-throughput screening of saRNAs targeting LHPP promoter: LHPP mRNA by one-step RT-qPCR in Huh7 cells
Type: cell-based, human
APPLIED_CONDITIONS: 10 nM saRNA, 72 hours, relative to control (Mock)
d = 2'-deoxy (DNA); r = 2'-OH (RNA)
Could you please report measured Fold of changes in relative LHPP mRNA expression level (log2) for the items listed next?
Field: numeric (log2). Do not append units.

What measured Fold of changes in relative LHPP mRNA expression level (log2) goes with RAG7-123: saRNA duplex; sense CGCUGAUCUCCUGGGAAGATT (SEQ ID NO: 68), antisense UCUUCCCAGGAGAUCAGCGTT (SEQ ID NO: 232) (sugars from the 5' end r19 d2, backbone not given here) ? 0.38

What measured Fold of changes in relative LHPP mRNA expression level (log2) goes with RAG7-31: saRNA duplex; sense UGCACCCGGUCUUCUUGCCTT (SEQ ID NO: 94), antisense GGCAAGAAGACCGGGUGCATT (SEQ ID NO: 258) (sugars from the 5' end r19 d2, backbone not given here) ? 0.30

What measured Fold of changes in relative LHPP mRNA expression level (log2) goes with RAG7-696: saRNA duplex; sense CCAGGUCCUAUGCAUCCUCTT (SEQ ID NO: 17), antisense GAGGAUGCAUAGGACCUGGTT (SEQ ID NO: 181) (sugars from the 5' end r19 d2, backbone not given here) ? 0.66

What measured Fold of changes in relative LHPP mRNA expression level (log2) goes with RAG7-113: saRNA duplex; sense CUGGGAAGAAAGCUUCCGATT (SEQ ID NO: 120), antisense UCGGAAGCUUUCUUCCCAGTT (SEQ ID NO: 284) (sugars from the 5' end r19 d2, backbone not given here) ? 0.24

What measured Fold of changes in relative LHPP mRNA expression level (log2) goes with RAG7-44: saRNA duplex; sense CCAGUUCCGGGUUUGCACCTT (SEQ ID NO: 121), antisense GGUGCAAACCCGGAACUGGTT (SEQ ID NO: 285) (sugars from the 5' end r19 d2, backbone not given here) ? 0.24

What measured Fold of changes in relative LHPP mRNA expression level (log2) goes with RAG7-908: saRNA duplex; sense UGAAAGCUCAAAGCUAUGUTT (SEQ ID NO: 31), antisense ACAUAGCUUUGAGCUUUCATT (SEQ ID NO: 195) (sugars from the 5' end r19 d2, backbone not given here) ? 0.57

What measured Fold of changes in relative LHPP mRNA expression level (log2) goes with RAG7-911: saRNA duplex; sense CUUUGAAAGCUCAAAGCUATT (SEQ ID NO: 160), antisense UAGCUUUGAGCUUUCAAAGTT (SEQ ID NO: 324) (sugars from the 5' end r19 d2, backbone not given here) ? 0.15

What measured Fold of changes in relative LHPP mRNA expression level (log2) goes with RAG7-146: saRNA duplex; sense UUCUGCUUUUCCUGCUCUUTT (SEQ ID NO: 10), antisense AAGAGCAGGAAAAGCAGAATT (SEQ ID NO: 174) (sugars from the 5' end r19 d2, backbone not given here) ? 0.76
